TESTED ON: human noradrenaline transporter (hNET) (Homo sapiens)
Construct: expressed in transfected cells; host or cells: HEK-293
Sequence (P23975 whole entry): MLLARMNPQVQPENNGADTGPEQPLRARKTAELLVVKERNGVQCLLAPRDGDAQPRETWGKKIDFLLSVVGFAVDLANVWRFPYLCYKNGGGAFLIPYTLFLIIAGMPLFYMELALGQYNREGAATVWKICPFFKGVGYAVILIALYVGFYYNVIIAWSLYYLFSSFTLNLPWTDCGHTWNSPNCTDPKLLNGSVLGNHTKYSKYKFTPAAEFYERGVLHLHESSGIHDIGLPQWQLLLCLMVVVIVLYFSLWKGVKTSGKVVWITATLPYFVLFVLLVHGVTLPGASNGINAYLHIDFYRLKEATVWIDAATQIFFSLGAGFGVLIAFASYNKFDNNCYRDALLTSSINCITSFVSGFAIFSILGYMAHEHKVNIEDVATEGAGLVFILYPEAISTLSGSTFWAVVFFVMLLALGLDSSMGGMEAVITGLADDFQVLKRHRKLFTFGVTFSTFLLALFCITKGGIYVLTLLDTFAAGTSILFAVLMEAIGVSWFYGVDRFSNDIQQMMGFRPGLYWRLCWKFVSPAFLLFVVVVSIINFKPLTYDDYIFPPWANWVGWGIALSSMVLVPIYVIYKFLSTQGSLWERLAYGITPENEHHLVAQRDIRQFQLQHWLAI
TEST: Inhibition of 3H-noradrenaline uptake in HEK-293 cells expressing hNET
Format: cell-based
CONDITION INFO: HEK-293 cells with hNET; 3H-noradrenaline 200 nM; 15 min incubation at 25° C.; read-out: NRI IC50
pIC50: −log10 of the molar value. Where a name gives a salt, the structure may show the parent alone.
TEST READOUT: pIC50

INSERT INTO measurements (compound, tested_on, test_readout, observed_value) VALUES
  ('Cc1cccc(C(=O)N(CC(C)C)[C@H]2CCNC2)c1Cl', 'human noradrenaline transporter (hNET) (Homo sapiens)', 'pIC50', 7.67),
  ('O=C(c1ccc(Cl)cc1)N(Cc1ccc(Cl)c(Cl)c1)[C@@H]1CCNC1 [Example 13, hydrochloride]', 'human noradrenaline transporter (hNET) (Homo sapiens)', 'pIC50', 8.51),
  ('CC(C)CN(C(=O)c1ccc(Cl)c(Cl)c1)[C@H]1CCNC1', 'human noradrenaline transporter (hNET) (Homo sapiens)', 'pIC50', 7.78),
  ('COc1cccc(C(=O)N(CC(C)C)[C@H]2CCNC2)c1C', 'human noradrenaline transporter (hNET) (Homo sapiens)', 'pIC50', 7.48),
  ('Cc1c(F)cccc1C(=O)N(CC(C)C)[C@H]1CCNC1', 'human noradrenaline transporter (hNET) (Homo sapiens)', 'pIC50', 7.34),
  ('CC(C)CN(C(=O)c1cccc(Cl)c1Cl)[C@H]1CCNC1 [Example 1, citrate]', 'human noradrenaline transporter (hNET) (Homo sapiens)', 'pIC50', 7.85),
  ('CC(C)CN(C(=O)c1ccc2ccccc2c1)[C@H]1CCNC1 [Example 11, hydrochloride]', 'human noradrenaline transporter (hNET) (Homo sapiens)', 'pIC50', 7.77),
  ('CC(C)CN(C(=O)c1ccc(Cl)cc1Cl)[C@H]1CCNC1 [Example 2, hydrochloride]', 'human noradrenaline transporter (hNET) (Homo sapiens)', 'pIC50', 7.55),
  ('CCCCN(C(=O)c1cccc2ccccc12)[C@H]1CCNC1 [Example 12, hydrochloride]', 'human noradrenaline transporter (hNET) (Homo sapiens)', 'pIC50', 7.58),
  ('O=C(c1ccc(Cl)cc1)N(Cc1cccc(Cl)c1Cl)[C@@H]1CCNC1 [Example 14, hydrochloride]', 'human noradrenaline transporter (hNET) (Homo sapiens)', 'pIC50', 7.24),
  ('CC(C)CN(C(=O)c1cc(F)c(Cl)cc1Cl)[C@H]1CCNC1 [Example 15, hydrochloride]', 'human noradrenaline transporter (hNET) (Homo sapiens)', 'pIC50', 7.15),
  ('CC(C)CN(C(=O)c1ccc(Cl)cc1)[C@H]1CCNC1', 'human noradrenaline transporter (hNET) (Homo sapiens)', 'pIC50', 7.26),
  ('O=C(c1ccccc1)N(Cc1ccc2ccccc2c1)[C@@H]1CCNC1 [Example 10, hydrochloride]', 'human noradrenaline transporter (hNET) (Homo sapiens)', 'pIC50', 8.11),
  ('CC(C)CN(C(=O)c1cccc(Cl)c1)[C@H]1CCNC1', 'human noradrenaline transporter (hNET) (Homo sapiens)', 'pIC50', 7.24),
  ('O=C(c1ccccc1)N(Cc1ccc2ccccc2c1)[C@H]1CCNC1 [Example 9, hydrochloride]', 'human noradrenaline transporter (hNET) (Homo sapiens)', 'pIC50', 7.85);
